# Tested on: ECU
# PROTOCOL: qHTS profiling for inhibitors of Plasmodium falciparum proliferation (AID 504749); also: nearly all actives have a fitted effect of over 60% in size
# CONDITIONS_USED: P. falciparum in erythrocytes, SYBR Green DNA, 72 h; series mostly up to 28.7 µM
Results filed as inconclusive are left out. Activity calls are given as the source filed them. Calls follow the shape of the dose curve; as a rule, active = well fitted inhibition curve with a large enough effect; inconclusive = small, poorly fitted or top-dose-only effect; inactive = flat fitted curve, though single readings scatter.
Classes to choose from: Yes = active, No = inactive

Called result for C=C[C@@H]1CN2CC[C@H]1C[C@H]2[C@H](O)c1ccnc2ccccc12 Yes

Called result for C[N+]1([O-])[C@H]2CC[C@H]1CC(OC(=O)[C@@H](CO)c1ccccc1)C2 (some centres undefined) No

Called result for C[C@@H](Cc1ccc(O)cc1)NC[C@@H](O)c1cc(O)cc(O)c1 No

Called result for C[C@@H]1O[C@@H](O[C@H]2C[C@@H](O)[C@@]3(CO)[C@H]4[C@H](O)C[C@]5(C)[C@@H](C6=CC(=O)OC6)CC[C@]5(O)[C@H]4CC[C@@]3(O)C2)[C@@H](O)[C@H](O)[C@H]1O No

----------
Please respond with reported caspase-3 activation for every item in the list.
# PROTOCOL: Cellular Toxicity (caspase-3) Jurkat (AID 655);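 also: cells exposed to compound for 16 h at 37 °C before reading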
# CONDITIONS_USED: Jurkat caspase-3 activation, luminescence; at 92.2 µM (top of the series), DMSO = 0%, tamoxifen = 100%
# Source text: NIH Chemical Genomics Center [NCGC] NIH Molecular Libraries Screening Centers Network [MLSCN] National Institutes of Environmental Health Sciences [NIEHS] National Toxicology Program [NTP] We have developed a 1536-well cell-based assay for quantitative high throughput screening (qHTS) against a number of cell lines to determine in vitro caspase 3/7 of small molecules. […] 7. Detection; Luminescence; Viewlux plate reader […]
Records with an inconclusive call do not appear.
Record the value in %, omitting the unit from your answer.

Endpoint output: caspase-3 activation of CCCCC#N . Value? 0.125

Endpoint output: caspase-3 activation of O=C(O)C(Cl)Br (stereo not drawn) . Value? -0.427

Endpoint output: caspase-3 activation of Cl/C=C\Cl . Value? 0.747

Endpoint output: caspase-3 activation of OCCBr . Value? -0.73

Endpoint output: caspase-3 activation of CCCCOC(C)=O . Value? 1.84

Endpoint output: caspase-3 activation of CCCCOC(=O)c1ccccc1N . Value? 1.19

Endpoint output: caspase-3 activation of Brc1cccc(-c2ccccc2)c1 . Value? 1.47

Endpoint output: caspase-3 activation of CC(C)[C@]12CC(=O)[C@H](C)[C@H]1C2 . Value? 0.322

Endpoint output: caspase-3 activation of CCCCC(=O)Cl . Value? 1.28

Endpoint output: caspase-3 activation of FC(Cl)(Cl)Cl . Value? -0.152

Endpoint output: caspase-3 activation of Nc1ccc([N+](=O)[O-])cc1N . Value? 17.7

Endpoint output: caspase-3 activation of Cc1ccc(N)cc1C . Value? 0.158

Endpoint output: caspase-3 activation of O=Cc1ccc(Cl)cc1Cl . Value? 8.63

Endpoint output: caspase-3 activation of Cl/C=C/Cl . Value? -1.85

Endpoint output: caspase-3 activation of O=[N+]([O-])c1ccc(Cl)cc1 . Value? 1.25

Endpoint output: caspase-3 activation of OC[P+](CO)(CO)CO . Value? 16.2

Endpoint output: caspase-3 activation of CCOP(=O)(OCC)OCC . Value? -0.738

Endpoint output: caspase-3 activation of CCCCOCC1CO1 (stereo not drawn) . Value? -0.958

Endpoint output: caspase-3 activation of CCC/C=N/O . Value? -1.14

Endpoint output: caspase-3 activation of ClC=CCl . Value? 1.45

Endpoint output: caspase-3 activation of Nc1ccc(-c2ccc(N)cc2)cc1 . Value? 0.684

Endpoint output: caspase-3 activation of C=CC#N . Value? -0.0463

Endpoint output: caspase-3 activation of Nc1ncc([N+](=O)[O-])s1 . Value? -1.21

Endpoint output: caspase-3 activation of c1ccc(P(c2ccccc2)c2ccccc2)cc1 . Value? 0.655

Endpoint output: caspase-3 activation of O=c1ccc(=O)[nH][nH]1 . Value? 1.49

Endpoint output: caspase-3 activation of CCCN(CCC)c1c([N+](=O)[O-])cc(C(F)(F)F)cc1[N+](=O)[O-] . Value? 2.21

Endpoint output: caspase-3 activation of Cc1cc(N=Nc2ccccc2C)ccc1N . Value? 2.76

Endpoint output: caspase-3 activation of O=[N+]([O-])c1c(Cl)c(Cl)c(Cl)c(Cl)c1Cl . Value? 0.645

Endpoint output: caspase-3 activation of CC(C#N)CCC#N (stereo not drawn) . Value? 0.213

Endpoint output: caspase-3 activation of c1ccc(OCC2CO2)cc1 (stereo not drawn) . Value? 1.63

Endpoint output: caspase-3 activation of O=NN1CCCCC1 . Value? 1.18

Endpoint output: caspase-3 activation of Nc1ccc2ccccc2c1 . Value? 1.77

Endpoint output: caspase-3 activation of Nc1ccc(-c2ccccc2)cc1 . Value? 2.52
